- System: Escherichia coli
- test description: Antibacterial activity against Escherichia coli ATCC 35218 at 80 uM/ml after 24 hrs by kirby-bauer method
- Assay type: functional
- experimental conditions: ATCC 35218, 24 h, read-out: IZ
measurement label: zone of inhibition at 80 µM (mm)

COc1cc(/C=C/C(=O)C2=C(/C=C/c3ccc(O)c(OC)c3)NC(=O)NC2c2ccc([N+](=O)[O-])cc2)ccc1O (configuration not stated): 16
CC1(C)S[C@@H]2[C@H](NC(=O)[C@H](N)c3ccccc3)C(=O)N2[C@H]1C(=O)O [AMPICILLIN]: 32
COc1cc(/C=C/C(=O)C2=C(/C=C/c3ccc(O)c(OC)c3)NC(=O)NC2c2ccccc2)ccc1O (configuration not stated): 9
COc1cc(/C=C/C(=O)C2=C(/C=C/c3ccc(O)c(OC)c3)NC(=O)NC2c2ccc(O)c(OC)c2)ccc1O (configuration not stated): 17
COc1cc(/C=C/C(=O)C2=C(/C=C/c3ccc(O)c(OC)c3)NC(=O)NC2c2ccccc2O)ccc1O (configuration not stated): 19
COc1cc(/C=C/C(=O)C2=C(/C=C/c3ccc(O)c(OC)c3)NC(=S)NC2c2ccc(Cl)cc2)ccc1O (configuration not stated): 15
COc1cc(/C=C/C(=O)C2=C(/C=C/c3ccc(O)c(OC)c3)NC(=S)NC2c2ccc(O)c(OC)c2)ccc1O (configuration not stated): 11
